targetOfAssay: mGluR1 α (Rattus norvegicus, UniProt P23385)
Sequence (P23385 19-1199): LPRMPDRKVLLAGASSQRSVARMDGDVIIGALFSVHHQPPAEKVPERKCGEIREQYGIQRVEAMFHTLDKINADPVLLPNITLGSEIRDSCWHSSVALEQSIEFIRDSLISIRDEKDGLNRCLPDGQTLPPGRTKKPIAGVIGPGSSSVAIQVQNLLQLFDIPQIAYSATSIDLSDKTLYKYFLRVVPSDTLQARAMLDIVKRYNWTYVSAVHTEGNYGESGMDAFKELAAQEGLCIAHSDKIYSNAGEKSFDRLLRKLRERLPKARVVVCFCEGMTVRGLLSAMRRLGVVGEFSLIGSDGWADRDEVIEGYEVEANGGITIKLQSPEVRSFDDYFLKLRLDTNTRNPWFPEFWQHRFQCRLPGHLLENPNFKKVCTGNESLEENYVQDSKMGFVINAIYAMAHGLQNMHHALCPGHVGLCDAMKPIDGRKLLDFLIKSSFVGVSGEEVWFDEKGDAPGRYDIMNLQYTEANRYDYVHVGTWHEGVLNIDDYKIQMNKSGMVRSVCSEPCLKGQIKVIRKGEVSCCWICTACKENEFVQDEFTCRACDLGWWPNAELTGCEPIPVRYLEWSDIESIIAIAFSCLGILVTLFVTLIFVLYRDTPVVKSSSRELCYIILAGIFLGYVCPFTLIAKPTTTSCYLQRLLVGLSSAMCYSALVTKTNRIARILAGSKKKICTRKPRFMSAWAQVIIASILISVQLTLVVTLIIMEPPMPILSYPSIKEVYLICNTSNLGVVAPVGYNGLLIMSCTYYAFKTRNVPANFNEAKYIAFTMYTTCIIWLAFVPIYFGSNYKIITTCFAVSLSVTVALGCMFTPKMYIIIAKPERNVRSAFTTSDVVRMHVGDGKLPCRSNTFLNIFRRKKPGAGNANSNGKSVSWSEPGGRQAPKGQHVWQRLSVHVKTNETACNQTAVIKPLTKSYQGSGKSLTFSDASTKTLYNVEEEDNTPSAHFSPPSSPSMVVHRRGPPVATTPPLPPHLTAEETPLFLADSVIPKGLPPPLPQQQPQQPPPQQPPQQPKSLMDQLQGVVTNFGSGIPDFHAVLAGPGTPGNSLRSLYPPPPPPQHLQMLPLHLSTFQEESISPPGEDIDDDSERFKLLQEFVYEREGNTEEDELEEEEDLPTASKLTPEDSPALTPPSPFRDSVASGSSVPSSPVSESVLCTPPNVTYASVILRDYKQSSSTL
protocolText: phosphatidylinositol (PI) hydrolysis system using mGluR1 α expression cells
conditionParameters: read-out: IC50, inhibition of the reaction of glutamic acid in PI hydrolysis system
Structures can show the parent of a compound that is named as a salt.
reportedMetric: IC50

*Q* Give recorded IC50. CN(C(=O)c1cn2c(nc3ccc(NC(=O)CN)cc32)s1)C1CCCCC1 [Example 41, dihydrochloride]
*A* 0.02 µM

// data source = patent US6642264B1
